- MEASUREMENT PROTOCOL: recombinant UMI read abundance after kanamycin selection (control-corrected) (log10(CPM+1)); higher = more efficient recombination; extreme values may be limits of the assay; sequences stand for … in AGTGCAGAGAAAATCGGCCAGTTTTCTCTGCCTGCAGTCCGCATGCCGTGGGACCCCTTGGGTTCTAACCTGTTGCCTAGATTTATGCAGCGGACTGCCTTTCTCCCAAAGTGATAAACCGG…AGGTTGGTTTCACT; site = the 11-nt donor
Measured recombinant UMI read abundance (log10) values are reported for all entries that follow.
READOUT: recombinant UMI read abundance (log10)

{"SEQUENCE": "CGCAACTCATGGACCGGTTTTCCCGGTAATCCGTATTTGAC (site CGCAACTCTGT)", "OBS VALUE": 2.04}
{"SEQUENCE": "TTTGCTGCATGGACCGGTTTTCCCGGTAATCCGTATTTGCT (site TTTGCTGCTAG)", "OBS VALUE": 0.00917}
{"SEQUENCE": "CGGATATCATGGACCGGTTTTCCCGGTAATCCGTATTTGCT (site CGGATATCTAG)", "OBS VALUE": 1.51}
{"SEQUENCE": "GGATAGCCATGGACCGGTTTTCCCGGTAATCCGTATTTGCC (site GGATAGTCTGG)", "OBS VALUE": 2.42}
{"SEQUENCE": "CTGGTTACATGGACCGGTTTTCCCGGTAATCCGTATTTGAG (site CTGGTTACTCT)", "OBS VALUE": 1.7}
{"SEQUENCE": "GCTGGTACATGGACCGGTTTTCCCGGTAATCCGTATTTGCG (site GCTGGTACTCG)", "OBS VALUE": 1.68}
{"SEQUENCE": "CTGCAACCATGGACCGGTTTTCCCGGTAATCCGTATTTGCT (site CTGCTACCTAG)", "OBS VALUE": 0}
{"SEQUENCE": "TGTTCCCCATGGACCGGTTTTCCCGGTAATCCGTATTTGGA (site TGTTCCCCTTT)", "OBS VALUE": 0.02}
{"SEQUENCE": "CATGGAACATGGACCGGTTTTCCCGGTAATCCGTATTTGTT (site CCTGGAACTAA)", "OBS VALUE": 0.00373}
{"SEQUENCE": "GGATTCGCATGGACCGGTTTTCCCGGTAATCCGTATTTGCG (site GGATTCGCTCG)", "OBS VALUE": 0.0184}
{"SEQUENCE": "AGGGATCCATGGACCGGTTTTCCCGGTAATCCGTATTTGAG (site AGGGATCCTCT)", "OBS VALUE": 0.635}
{"SEQUENCE": "CACGGTTCATGGACCGGTTTTCCCGGTAATCCGTATTTGGG (site CACGGTTCTCC)", "OBS VALUE": 1.03}
{"SEQUENCE": "CCTTATACATGGACCGGTTTTCCCGGTAATCCGTATTTGGT (site CCTTATACTAC)", "OBS VALUE": 0.00722}
{"SEQUENCE": "CTGGAGGCATGGACCGGTTTTCCCGGTAATCCGTATTTGTG (site TTGGAGGCTCA)", "OBS VALUE": 0.0143}
{"SEQUENCE": "CCGGTGGCATGGACCGGTTTTCCCGGTAATCCGTATTTGAC (site CCGGTGGCTGT)", "OBS VALUE": 1.58}
{"SEQUENCE": "AACTTGACATGGACCGGTTTTCCCGGTAATCCGTATTTGAC (site AACTTGACTGT)", "OBS VALUE": 0}
{"SEQUENCE": "GGGGCACCATGGACCGGTTTTCCCGGTAATCCGTATTTGAA (site GGGGCACCTTT)", "OBS VALUE": 0.0108}
{"SEQUENCE": "CCTTAACCATGGACCGGTTTTCCCGGTAATCCGTATTTGCT (site CCTTAACCTAG)", "OBS VALUE": 0}

* * *

- MEASUREMENT PROTOCOL: recombinant UMI read abundance after kanamycin selection (control-corrected) (log10(CPM+1)); higher = more efficient recombination; extreme values may be limits of the assay; sequences stand for … in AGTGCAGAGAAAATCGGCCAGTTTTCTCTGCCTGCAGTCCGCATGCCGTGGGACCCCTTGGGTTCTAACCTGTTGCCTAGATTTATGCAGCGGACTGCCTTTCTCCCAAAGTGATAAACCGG…AGGTTGGTTTCACT; site = the 11-nt donor
// label = satisfied if recombinant UMI read abundance (log10) is not less than 0.7, otherwise not satisfied

{"SEQUENCE": "CAGTCGACATGGACCGGTTTTCCCGGTAATCCGTATTTGGG (site AAGTCGACTCC)", "ASSIGNED CATEGORY": "not satisfied"}
{"SEQUENCE": "GGTACGTCATGGACCGGTTTTCCCGGTAATCCGTATTTGTT (site GGTACCTCTAA)", "ASSIGNED CATEGORY": "not satisfied"}
{"SEQUENCE": "CGGTCATCATGGACCGGTTTTCCCGGTAATCCGTATTTGCT (site CGGTCATCTAG)", "ASSIGNED CATEGORY": "satisfied"}
{"SEQUENCE": "CCCTTGCCATGGACCGGTTTTCCCGGTAATCCGTATTTGCC (site CCCTCGCCTGG)", "ASSIGNED CATEGORY": "not satisfied"}
{"SEQUENCE": "ATAAGGCCATGGACCGGTTTTCCCGGTAATCCGTATTTGAC (site ATAAGACCTGT)", "ASSIGNED CATEGORY": "not satisfied"}
{"SEQUENCE": "ACCAATTCATGGACCGGTTTTCCCGGTAATCCGTATTTGCC (site TCCAATTCTGG)", "ASSIGNED CATEGORY": "not satisfied"}
{"SEQUENCE": "TACTTCACATGGACCGGTTTTCCCGGTAATCCGTATTTGCT (site TACTTCACTAG)", "ASSIGNED CATEGORY": "satisfied"}
{"SEQUENCE": "AAAGCAGCATGGACCGGTTTTCCCGGTAATCCGTATTTGCT (site AAAGCAGCTAG)", "ASSIGNED CATEGORY": "satisfied"}
{"SEQUENCE": "TCATTGCCATGGACCGGTTTTCCCGGTAATCCGTATTTGAG (site TCATTGCCTCT)", "ASSIGNED CATEGORY": "not satisfied"}

* * *

- MEASUREMENT PROTOCOL: recombinant barcode read abundance after kanamycin selection (control-corrected) (log10(CPM+1)); higher = more efficient recombination; sequences stand for … in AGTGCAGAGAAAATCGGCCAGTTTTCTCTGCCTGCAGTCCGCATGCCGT…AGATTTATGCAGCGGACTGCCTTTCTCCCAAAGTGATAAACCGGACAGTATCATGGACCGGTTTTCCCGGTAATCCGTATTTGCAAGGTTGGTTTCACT; site = the 11-nt target
READOUT: recombinant barcode read abundance (log10)

{"SEQUENCE": "TCCAAAGCTTGGGTTCTAACCTGTTGCTA (site TCCGAAGCTTA)", "OBS VALUE": 0.294}
{"SEQUENCE": "TGTACGTCTTGGGTTCTAACCTGTTGCTT (site TGTACGTCTAA)", "OBS VALUE": 0.326}
{"SEQUENCE": "TAGTTTGCTTGGGTTCTAACCTGTTGCGA (site TAGTTTGCTTC)", "OBS VALUE": 0.171}
{"SEQUENCE": "TCGGGATCTTGGGTTCTAACCTGTTGCCT (site ACGGGATCTAG)", "OBS VALUE": 0.365}
{"SEQUENCE": "TAGCCGGCTTGGGTTCTAACCTGTTGCTT (site TAGCCGGCTAA)", "OBS VALUE": 0.358}
{"SEQUENCE": "AAGTCGTCTTGGGTTCTAACCTGTTGCCT (site ATGTCGTCTAG)", "OBS VALUE": 0.0249}
{"SEQUENCE": "GCTCGAACTTGGGTTCTAACCTGTTGCCT (site GCTCGAACTAG)", "OBS VALUE": 0.38}
{"SEQUENCE": "GGAGCTCCTTGGGTTCTAACCTGTTGCCG (site GGAGCTCCTCG)", "OBS VALUE": 0.846}
{"SEQUENCE": "GCCGACCCTTGGGTTCTAACCTGTTGCCG (site GCCTACCCTCC)", "OBS VALUE": 0.0507}
{"SEQUENCE": "CGCCCGCCTTGGGTTCTAACCTGTTGCCT (site GGCCCGCCTAG)", "OBS VALUE": 0.109}
{"SEQUENCE": "CATAGTCCTTGGGTTCTAACCTGTTGCCT (site CATAGTCCTAG)", "OBS VALUE": 0.605}
{"SEQUENCE": "CTTAGGACTTGGGTTCTAACCTGTTGCCC (site CTTAGGACTTG)", "OBS VALUE": 0.00992}
{"SEQUENCE": "CCGCTAGCTTGGGTTCTAACCTGTTGCCT (site TCGCTAGCTAG)", "OBS VALUE": 0.046}
{"SEQUENCE": "AGGTTCCCTTGGGTTCTAACCTGTTGCTT (site AGGTTCCCTCA)", "OBS VALUE": 0.0899}
{"SEQUENCE": "CAATGGTCTTGGGTTCTAACCTGTTGCCT (site CAATGGTCTAA)", "OBS VALUE": 0.376}
{"SEQUENCE": "TGTGAGTCTTGGGTTCTAACCTGTTGCAT (site TGTGAGTCTAC)", "OBS VALUE": 0.856}
{"SEQUENCE": "ACCCAGCCTTGGGTTCTAACCTGTTGCAT (site ACCCAGCCTAC)", "OBS VALUE": 0.265}
{"SEQUENCE": "GCACGTGCTTGGGTTCTAACCTGTTGCCT (site GCGCGTGCTAG)", "OBS VALUE": 0.0268}
{"SEQUENCE": "TCTGGGGCTTGGGTTCTAACCTGTTGCCG (site TCTGGGGCTCT)", "OBS VALUE": 0.618}
{"SEQUENCE": "TGTCAGGCTTGGGTTCTAACCTGTTGCCT (site TGCTAGGCTAG)", "OBS VALUE": 0.187}
{"SEQUENCE": "CCATACTCTTGGGTTCTAACCTGTTGCTT (site CCATGGTCTAA)", "OBS VALUE": 0}
